Biological target: FGFR2-IIIb (human) (UniProt P21802)
Sequence (P21802 other isoform, or with tags, fused parts or gaps limits assumed): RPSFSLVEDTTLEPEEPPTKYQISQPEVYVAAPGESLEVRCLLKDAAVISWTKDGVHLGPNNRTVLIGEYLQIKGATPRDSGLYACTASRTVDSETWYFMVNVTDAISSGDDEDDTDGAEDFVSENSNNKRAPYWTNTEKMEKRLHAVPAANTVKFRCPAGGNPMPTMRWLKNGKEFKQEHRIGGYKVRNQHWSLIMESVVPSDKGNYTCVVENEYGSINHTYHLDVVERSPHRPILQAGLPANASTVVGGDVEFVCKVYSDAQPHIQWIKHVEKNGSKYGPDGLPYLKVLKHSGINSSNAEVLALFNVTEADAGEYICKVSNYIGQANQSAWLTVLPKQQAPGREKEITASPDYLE
Assay: SPR (Biacore T100), IgG captured by anti-human Fc, FGFR flowed
Measured metric: pKd
# pKd is unitless: minus log10 of the molar concentration; print number only

{"columns": ["Binder", "Endpoint value"],
 "data": [
  ["2B.1.30 (antibody, human IgG1, kappa, V domains shown) VH: EVQLVESGGGLVQPGGSLRLSCAASGFTFTSTGISWVRQAPGKGLEWVGRVSFFSGSTNYADSVKGRFTISADTSKNTAYLQMNSLRAEDTAVYYCARTYGIYDLYVDYTEYVMDYWGQGTLVTVSS VL: DIQMTQSPSSLSASVGDRVTITCRASQDVDTSLAWYKQKPGKAPKLLIYSASFLYSGVPSRFSGSGSGTDFTLTISSLQPEDFATYYCQQSTGHPQTFGQGTKVEIKR", 8.39]
]}

Pending binder:
Endpoint output: pKd of 2B.1.9 (antibody, human IgG1, kappa, V domains shown) VH: EVQLVESGGGLVQPGGSLRLSCAASGFTFTSTGISWVRQAPGKGLEWVGRYHPYLGSTNYADSVKGRFTISADTSKNTAYLQMNSLRAEDTAVYYCARTYGIYDLYVDYTEYVMDYWGQGTLVTVSS VL: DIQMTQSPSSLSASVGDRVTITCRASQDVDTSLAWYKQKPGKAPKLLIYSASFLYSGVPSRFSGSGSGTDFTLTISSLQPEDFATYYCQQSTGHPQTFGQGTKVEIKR . Value?
8.85
